Target: human IL-17A / human IL-17RA (Homo sapiens (Human))
Method Notes: Human IL-17A biochemical assay (HTRF, blocking of IL-17A binding to IL-17RA)
Reported Conditions: 0.4 nM IL-17A, 0.3 nM IL-17RA, max compound concentration 10 uM
pIC50: −log10 of the molar value.
Reported Endpoint: pIC50

1. CC[C@@H]1CN(C2(C(=O)NC)Cc3cc4nc([C@@H](NC(=O)c5nonc5C)C5CCCCC5)[nH]c4cc3C2)C(=O)N1 | 7.21
2. CC(C)n1nccc1C(=O)N[C@H](C(=O)Nc1ccc2c(c1)CC(c1ncc(-c3ccccc3)[nH]1)(N1CC3(CC3)CNC1=O)C2)C(C1CC1)C1CC1 (stereo partly drawn) | 6.57
3. CNC(=O)C1(N2CC(C3CCc4ccccc43)NC2=O)Cc2ccc(NC(=O)[C@@H](NC(=O)c3ccnn3C)C3CCCCC3)cc2C1 (stereo partly drawn) | 5.52
4. CNC(=O)C1(N2C[C@@H](C(C)C)NC2=O)Cc2ccc(NC(=O)[C@@H](NC(=O)c3cccnc3)C3CCCCC3)cc2C1 (stereo partly drawn) | 6.23
5. CNC(=O)C1(N2CC3(CC3)CNC2=O)Cc2ccc(NC(=O)C(NC(=O)c3nonc3C)C3CCC(C(F)(F)F)CC3)cc2C1 (stereo not drawn) | 6.72
6. CNC(=O)C1(N2CC3(CCC3)CNC2=O)Cc2ccc(NC(=O)[C@@H](NC(=O)c3ccnn3C)C3CCCCC3)cc2C1 (stereo partly drawn) | 8.24

* * *

Measured IC50 values are reported for all entries that follow.
Target: human IL-17A / human IL-17RA (Homo sapiens (Human), UniProt Q16552)
Sequence (Q16552 24-155): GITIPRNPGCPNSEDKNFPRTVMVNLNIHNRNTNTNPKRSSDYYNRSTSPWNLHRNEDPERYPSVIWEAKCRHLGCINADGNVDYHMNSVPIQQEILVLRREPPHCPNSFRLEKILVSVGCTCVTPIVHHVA
Method Notes: Human IL-17A biochemical assay (HTRF, blocking of IL-17A binding to IL-17RA)
Reported Conditions: 0.4 nM IL-17A, 0.3 nM IL-17RA, max compound concentration 10 uM
Protocol: Compounds disclosed herein were tested for blocking of human IL-17A (Cat: C774, novoprotein) protein with its receptor human IL-17RA (Cat: C153, novoprotein) in an assay based on Homogeneous Time Resolved Fluorescence. […] The HTRF signals (ex337 nm, em620 nm/665 nm) were read on BMG PHERAstar FSX instrument. […]
Reported Endpoint: IC50

1) CNC(=O)C1(N2C[C@@H](C(C)C)NC2=O)Cc2ccc(NC(=O)[C@@H](NC(=O)C3CC3)C3CCCCC3)cc2C1 (stereo partly shown) [Example 49] | 1810 nM
2) Cc1nonc1C(=O)N[C@H](C(=O)Nc1ccc2c(c1)CC(C(=O)NCc1cccnn1)(N1CC3(CC3)CNC1=O)C2)C1CCC(F)(F)CC1 (stereo partly shown) [Example 228] | 15.9 nM
3) CNC(=O)C1(N2CC(c3ccccc3)NC2=O)Cc2ccc(NC(=O)[C@@H](NC(=O)c3ccnn3C)C3CCCCC3)cc2C1 (stereo partly shown) [Example 36] | 2430 nM
4) Cc1nonc1C(=O)N[C@H](C(=O)Nc1ccc2c(c1)CC(N1CC3(CC3)CNC1=O)(C(C)(C)O)C2)C1CCC(F)(F)CC1 (stereo partly shown) [Example 247] | 20.9 nM
5) CNC(=O)C1(N2C[C@@H](C(C)C)NC2=O)Cc2ccc(NC(=O)[C@@H](NC(=O)c3ccn(CCO)n3)C3CCCCC3)cc2C1 (stereo partly shown) [Example 103] | 2700 nM
6) Cc1nonc1C(=O)N[C@H](C(=O)Nc1ccc2c(c1)CC(c1cn3ccccc3n1)(N1CC3(CC3)CNC1=O)C2)C1CCC(F)(F)CC1 (stereo partly shown) [Example 223] | 118 nM
7) CC(C)n1nccc1C(=O)N[C@H](C(=O)Nc1ccc2c(c1)CC(N1C[C@@H](C(F)(F)F)NC1=O)C2)C1CCCCC1 (stereo partly shown) [Example 195] | 128 nM
8) Cc1nonc1C(=O)N[C@H](C(=O)Nc1ccc2c(c1)CC(C(=O)Nc1ccc(C(F)(F)F)c(Cl)c1)(N1C[C@@H](C(C)C)NC1=O)C2)C(C1CC1)C1CC1 (stereo partly shown) [Example 260] | > 10000 nM
9) Cn1nccc1C(=O)N[C@H](C(=O)Nc1ccc2c(c1)CC(CNc1ccccc1F)(N1CC3(CC3)CNC1=O)C2)C1CCCCC1 (stereo partly shown) [Example 172] | 400 nM
10) CNC(=O)C1(N2C[C@@H](C(C)C)NC2=O)Cc2ccc(NC(=O)C(NC(=O)c3ccnn3C)C3C4CC5CC(C4)CC3C5)cc2C1 (stereo partly shown) [Example 111] | 55 nM
